The reader will find reported IC50 values listed item by item below.
Biological target: Rat GnRH Receptor (Rattus norvegicus, UniProt P30969)
Construct: Anterior lobes of the pituitary glands were isolated from forty Wistar rats; from tissue; host or cells: rat (Wistar, male, 8 weeks) anterior pituitary membrane fraction
Sequence (P30969 1-327): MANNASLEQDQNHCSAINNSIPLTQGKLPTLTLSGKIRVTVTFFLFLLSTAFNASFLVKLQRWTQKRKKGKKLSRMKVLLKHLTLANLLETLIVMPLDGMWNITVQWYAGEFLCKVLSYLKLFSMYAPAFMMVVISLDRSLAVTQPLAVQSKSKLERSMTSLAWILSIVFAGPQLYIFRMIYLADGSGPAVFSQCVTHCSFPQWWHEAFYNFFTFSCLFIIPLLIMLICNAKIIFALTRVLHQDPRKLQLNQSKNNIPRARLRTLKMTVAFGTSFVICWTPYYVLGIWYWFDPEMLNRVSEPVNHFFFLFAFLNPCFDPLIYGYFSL
Experiment: 125I-leuprorelin binding inhibition, rat pituitary anterior lobe membrane fraction
Settings: 4° C. for 90 minutes, Hill plot
Structures can show the parent of a compound that is named as a salt.
Numbers only; they are read as µM.

[
  {
    "molecule": "CCNC(=O)Nc1ccc(-c2sc3c(c2CN(C)CCOC(C)C)c(=O)n(-c2ccccc2)c(=O)n3Cc2c(F)cccc2F)cc1",
    "endpoint-label": "IC50",
    "observed-result": 0.2
  }
]

Task: Given the entry CCNC(=O)Nc1ccc(-c2sc3c(c2CN(C)CCOC)c(=O)n(-c2ccccc2)c(=O)n3Cc2c(F)cccc2F)cc1 [Example 112, hydrochloride] , what IC50 was observed with Rat GnRH Receptor (Rattus norvegicus, UniProt P30969)?
Output: 0.2

----------
The reader will find reported melting point values listed item by item below.

The examples below pair each entry with its known result.
[
  {
    "compound": "CCNC(=O)Nc1ccc(-c2sc3c(c2CN(C)CCN(C)S(C)(=O)=O)c(=O)n(-c2ccc(OCCOC)cc2)c(=O)n3Cc2c(F)cccc2F)cc1",
    "melting point": "197 to 199 °C"
  },
  {
    "compound": "CCNC(=O)Nc1ccc(-c2sc3c(c2CN(C)CCOC)c(=O)n(-c2ccc(OCCOC)c(OCCOC)c2)c(=O)n3Cc2c(F)cccc2F)cc1 [Example 105]",
    "melting point": "222 to 225 °C"
  },
  {
    "compound": "CCNC(=O)Nc1ccc(-c2sc3c(c2CN(C)CCOCCOCC)c(=O)n(-c2ccccc2)c(=O)n3Cc2c(F)cccc2F)cc1",
    "melting point": "230 to 233 °C"
  }
]

Task: // melting point lookup, key: CCNC(=O)Nc1ccc(-c2sc3c(c2CN(C)Cc2ccccn2)c(=O)n(-c2ccccc2)c(=O)n3Cc2c(F)cccc2F)cc1
Output: 203 to 204 °C

Task: // melting point lookup, key: CCNC(=O)Nc1ccc(-c2sc3c(c2CN(C)CCC(=O)N(C)C)c(=O)n(-c2ccc(OCCOC)cc2)c(=O)n3Cc2c(F)cccc2F)cc1
Output: 215 to 218 °C

Task: // melting point lookup, key: CCNC(=O)Nc1ccc(-c2sc3c(c2CN(C)CCNC)c(=O)n(-c2ccccc2)c(=O)n3Cc2c(F)cccc2F)cc1
Output: 192 to 193 °C

----------
The reader will find reported melting point values listed item by item below.

The examples below pair each entry with its known result.
[
  {
    "compound": "CCNC(=O)Nc1ccc(-c2sc3c(c2CN(C)C[C@@H]2CCCN2S(C)(=O)=O)c(=O)n(-c2ccccc2)c(=O)n3Cc2c(F)cccc2F)cc1 [Example 84]",
    "melting point": "189 to 191 °C"
  },
  {
    "compound": "CCNC(=O)Nc1ccc(-c2sc3c(c2CN(C)CCN(C)S(C)(=O)=O)c(=O)n(-c2ccc(F)cc2)c(=O)n3Cc2c(F)cccc2F)cc1 [Example 37]",
    "melting point": "228 to 230 °C"
  },
  {
    "compound": "CCNC(=O)Nc1ccc(-c2sc3c(c2CNC)c(=O)n(-c2ccc(OCCOC)cc2)c(=O)n3Cc2c(F)cccc2F)cc1 [Example 28]",
    "melting point": "203 to 205 °C"
  },
  {
    "compound": "CCNC(=O)Nc1ccc(-c2sc3c(c2CN(C)C[C@H]2CCCN2S(C)(=O)=O)c(=O)n(-c2ccccc2)c(=O)n3Cc2c(F)cccc2F)cc1 [Example 85]",
    "melting point": "189 to 190 °C"
  },
  {
    "compound": "CCNC(=O)Nc1ccc(-c2sc3c(c2CN(C)CC(=O)OCC)c(=O)n(-c2ccccc2)c(=O)n3Cc2c(F)cccc2F)cc1 [Example 5]",
    "melting point": "208 to 209 °C"
  }
]

Task: // melting point lookup, key: CCNC(=O)Nc1ccc(-c2sc3c(c2CN(C)CCOC)c(=O)n(-c2ccc(OCCOC(C)=O)cc2)c(=O)n3Cc2c(F)cccc2F)cc1 [Example 107]
Output: 212 to 215 °C

----------
endpoint-label: melting point

[
  {
    "molecule": "CCNC(=O)Nc1ccc(-c2sc3c(c2CN(C)CCN2CCOC2=O)c(=O)n(-c2ccccc2)c(=O)n3Cc2c(F)cccc2F)cc1",
    "observed-result": "153 to 155 °C"
  },
  {
    "molecule": "CCNC(=O)Nc1ccc(-c2sc3c(c2CN(C)CCN(C)S(C)(=O)=O)c(=O)n(-c2ccccc2)c(=O)n3Cc2c(F)cccc2F)cc1",
    "observed-result": "216 to 218 °C"
  },
  {
    "molecule": "CCNC(=O)Nc1ccc(-c2sc3c(c2CN(C)CCC(=O)N2CCCC2)c(=O)n(-c2ccccc2)c(=O)n3Cc2c(F)cccc2F)cc1",
    "observed-result": "240 to 244 °C"
  }
]

Task: // melting point lookup, key: CCNC(=O)Nc1ccc(-c2sc3c(c2CN(C)CCC(=O)N(C)C)c(=O)n(-c2ccccc2)c(=O)n3Cc2c(F)cccc2F)cc1
Output: 236 to 237 °C

Task: // melting point lookup, key: CCNC(=O)Nc1ccc(-c2sc3c(c2CN(C)CCOC)c(=O)n(-c2ccc(OCCO)cc2)c(=O)n3Cc2c(F)cccc2F)cc1
Output: 236 to 238 °C

Task: // melting point lookup, key: CCNC(=O)Nc1ccc(-c2sc3c(c2CN(C)CCN2CCCC2=O)c(=O)n(-c2ccc(F)cc2)c(=O)n3Cc2c(F)cccc2F)cc1
Output: 204 to 206 °C

Task: // melting point lookup, key: CCNC(=O)Nc1ccc(-c2sc3c(c2CN(C)C(C)C)c(=O)n(-c2ccccc2)c(=O)n3Cc2c(F)cccc2F)cc1
Output: 208 to 210 °C

Task: // melting point lookup, key: CCNC(=O)Nc1ccc(-c2sc3c(c2CN(C)CC2CCN(C)C2=O)c(=O)n(-c2ccc(F)cc2)c(=O)n3Cc2c(F)cccc2F)cc1 (stereo not shown)
Output: 233 to 234 °C

----------
The reader will find reported melting point values listed item by item below.

The examples below pair each entry with its known result.
[
  {
    "compound": "CCNC(=O)Nc1ccc(-c2sc3c(c2CN(C)C2CCCC2)c(=O)n(-c2ccccc2)c(=O)n3Cc2c(F)cccc2F)cc1",
    "observed-result": "210 to 213 °C"
  },
  {
    "compound": "CCNC(=O)Nc1ccc(-c2sc3c(c2CN(C)CCOC)c(=O)n(-c2ccc(NC(C)=O)cc2)c(=O)n3Cc2c(F)cccc2F)cc1",
    "observed-result": "218 to 220 °C"
  },
  {
    "compound": "CCNC(=O)Nc1ccc(-c2sc3c(c2CN(C)CCOC)c(=O)n(-c2ccc(OCc4ccccc4)cc2)c(=O)n3Cc2c(F)cccc2F)cc1",
    "observed-result": "223 to 225 °C"
  },
  {
    "compound": "CCNC(=O)Nc1ccc(-c2sc3c(c2CN(C)CCOCCOC)c(=O)n(-c2ccccc2)c(=O)n3Cc2c(F)cccc2F)cc1",
    "observed-result": "228 to 231 °C"
  },
  {
    "compound": "CCNC(=O)Nc1ccc(-c2sc3c(c2CN(C)CCNS(C)(=O)=O)c(=O)n(-c2ccccc2)c(=O)n3Cc2c(F)cccc2F)cc1",
    "observed-result": "186 to 188 °C"
  }
]

Task: // melting point lookup, key: CCNC(=O)Nc1ccc(-c2sc3c(c2CN(C)CCOC)c(=O)n(-c2ccc(OCCOC)cc2)c(=O)n3Cc2c(F)cccc2F)cc1
Output: 215 to 218 °C

Task: // melting point lookup, key: CCNC(=O)Nc1ccc(-c2sc3c(c2CN(C)CCC(=O)NCCOC)c(=O)n(-c2ccccc2)c(=O)n3Cc2c(F)cccc2F)cc1
Output: 240 to 244 °C

Task: // melting point lookup, key: CCNC(=O)Nc1ccc(-c2sc3c(c2CN(C)CCOC)c(=O)n(-c2ccc(OCCNS(C)(=O)=O)cc2)c(=O)n3Cc2c(F)cccc2F)cc1
Output: 232 to 235 °C

Task: // melting point lookup, key: CCNC(=O)Nc1ccc(-c2sc3c(c2CN(C)C2CCCCC2)c(=O)n(-c2ccccc2)c(=O)n3Cc2c(F)cccc2F)cc1
Output: 210 to 212 °C

Task: // melting point lookup, key: CCNC(=O)Nc1ccc(-c2sc3c(c2CN(C)CCN2CCCC2=O)c(=O)n(-c2ccccc2)c(=O)n3Cc2c(F)cccc2F)cc1
Output: 140 to 142 °C

Task: // melting point lookup, key: CCNC(=O)Nc1ccc(-c2sc3c(c2CN(C)CCOC)c(=O)n(-c2ccc(OCCOC)c(OCCOC)c2)c(=O)n3Cc2c(F)cccc2F)cc1 [Example 101]
Output: 206 to 208 °C

Task: // melting point lookup, key: CCNC(=O)Nc1ccc(-c2sc3c(c2CN(C)CCOC)c(=O)n(-c2ccc(NC(=O)NCC)cc2)c(=O)n3Cc2c(F)cccc2F)cc1
Output: 236 to 239 °C

Task: // melting point lookup, key: CCNC(=O)Nc1ccc(-c2sc3c(c2CN(C)CCC(=O)OCC)c(=O)n(-c2ccccc2)c(=O)n3Cc2c(F)cccc2F)cc1
Output: 198 to 200 °C
